This section presents compounds with their documented z-score values.
ASSAYED SYSTEM: NADPH oxidase 2 (Homo sapiens) (UniProt P04839)
Sequence (P04839 whole entry, looked up): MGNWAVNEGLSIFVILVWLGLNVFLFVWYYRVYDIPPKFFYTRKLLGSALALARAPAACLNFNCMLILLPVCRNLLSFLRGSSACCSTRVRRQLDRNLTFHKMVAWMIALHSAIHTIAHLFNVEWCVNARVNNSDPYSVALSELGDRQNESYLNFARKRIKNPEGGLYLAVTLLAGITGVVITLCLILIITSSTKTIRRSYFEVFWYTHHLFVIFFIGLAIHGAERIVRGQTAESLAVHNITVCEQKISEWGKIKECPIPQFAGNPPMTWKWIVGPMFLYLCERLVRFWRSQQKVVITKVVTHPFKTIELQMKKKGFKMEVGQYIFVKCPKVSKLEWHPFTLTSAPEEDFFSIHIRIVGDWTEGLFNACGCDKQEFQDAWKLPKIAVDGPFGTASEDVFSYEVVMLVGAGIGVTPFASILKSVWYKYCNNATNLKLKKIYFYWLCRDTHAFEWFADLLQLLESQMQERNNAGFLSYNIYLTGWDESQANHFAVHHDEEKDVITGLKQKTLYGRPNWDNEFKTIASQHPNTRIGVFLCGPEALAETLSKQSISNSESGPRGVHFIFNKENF
TEST SUMMARY: compounds shifting NOX2 Amplex Red fluorescence – cell-based, HEK293-NOX2, PMA-stimulated, NOX inhibitor project, primary screen (AID 1159); also: test concentration not given here
REPORTED CONDITIONS: 45 min, higher = more signal, called active from +8 up or from −8 down
I only need the number, thanks.

Some entries whose results are on file:
INSERT INTO measurements (compound, recorded_number) VALUES
  ('C=CCOC(=O)[C@@]1(Cc2ccccc2)C[C@H]2CO[C@H](c3ccc(OC)cc3)N2C1=O', 0.826),
  ('[N-]=[N+]=Nc1ccccc1C[C@]1(C(=O)NCC(O)CO)COC(c2ccc(OCCCO)cc2)=N1 (stereo partly drawn)', 1.52);

Here is the next item to consider.
stdin: Which z-score is reported for this compound? N#Cc1ccc(NN2C(C(O)c3ccc(Br)cc3)C=CC3C(=O)N(c4ccccc4)C(=O)C32)cc1 (stereo not drawn)
stdout: -2.6
